- targetUnderTest: arylalkylamine N-acetyltransferase like 7 (AANATL7) (Drosophila melanogaster, UniProt Q9W4Y1)
This section presents compounds with their documented Ki values.

chemicalStructure: CCCCCCCC/C=C\CCCCCCCC(=O)SCCNC(=O)CCNC(=O)[C@H](O)C(C)(C)COP(=O)(O)OP(=O)(O)OC[C@H]1O[C@@H](n2cnc3c(N)ncnc32)[C@H](O)[C@@H]1OP(=O)(O)O
Ki: 0.2 µM

chemicalStructure: OCCc1ccc(O)cc1
Ki: 430 µM

---

- targetUnderTest: UniProt Q9W4Y1

chemicalStructure: CC(C)(COP(=O)(O)OP(=O)(O)OC[C@H]1O[C@@H](n2cnc3c(N)ncnc32)[C@H](O)[C@@H]1OP(=O)(O)O)[C@@H](O)C(=O)NCCC(=O)NCCS
targetUnderTest: UniProt Q9W4Y1
Kd (µM): 530
